Where do the numbers come from? From PubChem BioAssay (NCI).

Here, each record is paired with measured GI50 data.
- Test system: PC-3 prostate
- TEST SUMMARY: NCI tumour cell line growth inhibition, 48 h

COMPOUND | EXPERIMENTAL SYSTEM | GI50
O=C(Cc1ccccc1)NC(c1ccc(Cl)cc1)c1c(O)ccc2ccccc12 (stereo not given) | PC-3 prostate | 3.19 µM
COc1ccc2c(c1)/C(=C\c1c(Cl)n(C)c3ccccc13)C(=O)N2 | PC-3 prostate | 1.33 µM
N#Cc1c(N)nc(NCc2ccccc2)c(C#N)c1-c1ccccc1Cl | PC-3 prostate | 12 µM
CC1OC(n2c3ccccc3c3c4c(c5c6ccccc6[nH]c5c32)C(=O)N(CCN2CCOCC2)C4=O)CC(O)C1O (stereo not given) | PC-3 prostate | 3.55 µM
COc1cccc(Cn2c(-c3nonc3NC(C)=O)nc3ccccc32)c1 | PC-3 prostate | 2.83 µM

====

- Tested on: COLO 205 colon
- TEST SUMMARY: NCI tumour cell line growth inhibition, 48 h
METRIC NAME: TGI

COMPOUND | METRIC NAME | VALUE REPORTED
CCOC1(OCC)N=C(N)C2(C#N)C3(C(=O)N(C(C)C)N=C3C)C12C#N (stereo not drawn) | TGI | > 100 µM
O=C(Nc1sccc1S(=O)(=O)c1ccc(Cl)cc1)c1ccccc1 | TGI | > 100 µM
N#CCCSC(=S)C1CCCC1=N (stereo not drawn) | TGI | > 100 µM

====

- System: HT29 colon
- TEST SUMMARY: NCI tumour cell line growth inhibition, 48 h

COMPOUND | TGI
COC(=O)c1ccc(COC(=O)N2C=CCC2C(=O)O)cc1 (configuration not stated) | > 100 µM
CCN(CC)CCCC(Cc1ccccc1)Nc1c2ccc(Cl)cc2nc2ccc(OC)cc12 (configuration not stated) | 3.57 µM
O=Nc1sc(=N\O)/c(=N/O)sc1NO | > 100 µM
CCOC(=O)C(=O)Nc1c(CC)cccc1C(C)CC (configuration not stated) | > 100 µM
C=C(Br)C(C)(Br)CCC(Br)C(C)(C)Br (configuration not stated) | > 100 µM
C(=NCCCN1CCN(CCCN=Cc2cccc3ccccc23)CC1)c1cccc2ccccc12 | > 100 µM
Cc1ccc([N+](=O)[O-])cc1S(=O)(=O)Nc1ccc(C2=NN(C(=O)c3ccccc3)C(c3cccs3)C2)cc1 (configuration not stated) | > 100 µM
CCC(c1ccc2cc(O)ccc2c1)C(C)(C)C(=O)O (configuration not stated) | > 100 µM
CCC1c2[nH]c3ccccc3c2C[C@H]2C(=O)NC(CCCCNC(=O)OC(C)(C)C)C(=O)N12 (some centres not stated) | 99.3 µM
COc1cccc(Cn2c(-c3nonc3NC(C)=O)nc3ccccc32)c1 | > 100 µM
COc1cc(C2CC(c3ccccc3)=NN2C(C)=O)cc(OC)c1OC (configuration not stated) | > 100 µM
NC(=O)Nc1ccc(C(=O)NCCCNC(=O)c2ccc(NC(N)=O)cc2)cc1 | > 100 µM
O=S(=O)(CCNCc1ccc(-c2ccc3ncnc(Nc4ccc(OCc5cccc(F)c5)c(Cl)c4)c3c2)o1)c1ccccc1 | > 25 µM
CN(C)C1=NC2=S(SC(Nc3ccccc3)=N2)S1 (configuration not stated) | > 100 µM
COC1OC(COS(=O)(=O)c2ccc(C)cc2)C(O)C(OS(=O)(=O)c2ccc(C)cc2)C1OS(=O)(=O)c1ccc(C)cc1 (configuration not stated) | > 100 µM
Clc1ccc(C2=C(c3ccccc3)C(c3ccc(Cl)cc3)N3C(=N[C@H]4CCCC[C@@H]43)N2)cc1 (some centres not stated) | 11.7 µM
CSc1nc(C)c(Br)c(=O)n1C1OC(COC(C)=O)C(OC(C)=O)C(OC(C)=O)C1OC(C)=O (configuration not stated) | > 100 µM
COC(=O)CS(=O)c1ccccc1 (configuration not stated) | > 100 µM
CNC(=O)NC(CCCCNC(=O)OCc1ccccc1)C(=O)OCc1ccccc1 (configuration not stated) | > 100 µM
CCOC(=O)c1c[nH]cc1-c1cn(S(=O)(=O)c2ccccc2)cc1C | 52.8 µM
O=C(O)c1cccc2cccc(C(=O)O)c12.[Hg] | 27.2 µM
C[C@]12CC[C@H]3[C@@H](CCC4=CC(=O)CC[C@@]43C)[C@@H]1CC[C@@H]2C(=O)Nc1ccc([N+](=O)[O-])c(C(F)(F)F)c1 | 32.1 µM
CCCCCNC(=O)c1c(O)[nH]c(=S)[nH]c1=O | > 100 µM
Cc1ccc2ccc3ccc(C)nc3c2n1 | > 100 µM
CC1=CC(=O)[C@@H](O)[C@]2(C)[C@H]3[C@@]4(O)OC[C@@]35[C@@H](C[C@@H]12)OC(=O)C(OC(=O)CC1=CCCC1)[C@H]5[C@@H](C)[C@H]4O (some centres not stated) | 0.203 µM
COc1ccc2c(c1)/C(=C\c1c(Cl)n(C)c3ccccc13)C(=O)N2 | > 100 µM
COC(=O)Cc1c(/C=C/C(C)(C)n2cnc(CCN3C(=O)CCC3=O)c2)[nH]c2ccccc12 | > 100 µM
CCN(CC)CCCCNc1ncc2cc(-c3cc(OC)cc(OC)c3)c(NC(=O)NC(C)(C)C)nc2n1 | 13.9 µM
COc1nc(N)nc2c1ncn2[C@@H]1O[C@H](CO)[C@@H](O)[C@@H]1O | > 100 µM
COc1ccc(-c2cc(-c3cc(C)ccc3O)[nH]c(=O)n2)cc1 | > 100 µM
CNS(=O)(=O)c1ccc2[nH]c(O)c(C3=Nc4ccccc4C3=O)c2c1 | > 100 µM
COCCN(CCOC)C(=O)COc1c2cc(C(C)(C)C)cc1Cc1cc(C(C)(C)C)cc(c1OCC(=O)N(CCOC)CCOC)Cc1cc(C(C)(C)C)cc(c1OCC(=O)N(CCOC)CCOC)Cc1cc(C(C)(C)C)cc(c1OCC(=O)N(CCOC)CCOC)Cc1cc(C(C)(C)C)cc(c1OCC(=O)N(CCOC)CCOC)C2 | 8.13 µM
